Biological target: Neuropeptide Y receptor type 5 (Homo sapiens, UniProt Q15761)
Sequence (Q15761 whole entry): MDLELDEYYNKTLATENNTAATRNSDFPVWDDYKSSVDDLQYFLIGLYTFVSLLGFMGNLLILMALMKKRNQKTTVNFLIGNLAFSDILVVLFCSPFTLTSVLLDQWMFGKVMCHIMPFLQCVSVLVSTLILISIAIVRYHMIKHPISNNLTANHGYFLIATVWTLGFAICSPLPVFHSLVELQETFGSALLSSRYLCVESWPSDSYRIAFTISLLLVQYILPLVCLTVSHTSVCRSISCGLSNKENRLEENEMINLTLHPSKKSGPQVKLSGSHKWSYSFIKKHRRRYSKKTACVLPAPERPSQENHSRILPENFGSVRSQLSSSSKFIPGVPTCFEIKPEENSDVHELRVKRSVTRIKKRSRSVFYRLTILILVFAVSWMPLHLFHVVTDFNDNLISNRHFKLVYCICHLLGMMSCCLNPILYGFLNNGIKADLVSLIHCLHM
Collected log10(IC50) for Neuropeptide Y receptor type 5 (Homo sapiens, UniProt Q15761) across several studies; molecules listed below.
Values are log10 of IC50 in nM.

Answered examples (8):
molecule	assay.result
COc1ccc2c(c1)CC(O)(CNCC1CCN(CCNS(=O)(=O)c3cccc4ccccc34)CC1)CCC2 (stereo not given)	1.75
O=C(Nc1nc(N2CCCCC2)c2[nH]c(-c3ccccc3)cc2n1)c1ccccc1	2.88
O=S(=O)(NCCN1CCC(CNC2CCCc3ccc(Cl)cc3C2)CC1)c1cccc2ccccc12 (stereo not given)	1.93
CCC1CCCCN1c1[nH]c(C)nc2cc(-c3ccccc3)nc1-2 (stereo not given)	1.87
Cc1nc(N2CCCCC2)c2nc(CC3CCCCC3)cc-2[nH]1	0.93
Cc1nc(N2CCCCC2)c2nc(CS(=O)(=O)c3ccc(Cl)cc3)cc-2[nH]1	3.93
O=C1O[C@]2(CC[C@H](C(=O)Nc3ccc(-c4ccccc4)cn3)CC2)c2cnccc21	0.32
CS(=O)(=O)N1CC2(CCN(C(=O)Nc3nc4cc(Cl)ccc4o3)CC2)c2ccccc21	0.70

Look up log10(IC50): COc1ccc2c(c1)C(O)(CNCC1CCN(CCNS(=O)(=O)c3cccc(C)c3)CC1)CCC2 (stereo not given)
1.11

Look up log10(IC50): Cc1nc(N2CCCCC2)c2[nH]c(-c3cc4ccccc4o3)cc2n1
-0.52

Look up log10(IC50): CS(=O)(=O)N1CC2(CCN(C(=O)Nc3ccc(C(=O)c4ccccc4)cc3)CC2)c2ccccc21
-0.17

Look up log10(IC50): O=C1O[C@]2(CC[C@H](C(=O)Nc3ccn(-c4ccccc4)n3)CC2)c2cnccc21
0.36
